FYI, the data here is from ChEMBL document CHEMBL2429814.

ASSAYED_SYSTEM: Metabotropic glutamate receptor 5 (Rattus norvegicus) (UniProt P31424)
Sequence (P31424 21-1203 limits assumed): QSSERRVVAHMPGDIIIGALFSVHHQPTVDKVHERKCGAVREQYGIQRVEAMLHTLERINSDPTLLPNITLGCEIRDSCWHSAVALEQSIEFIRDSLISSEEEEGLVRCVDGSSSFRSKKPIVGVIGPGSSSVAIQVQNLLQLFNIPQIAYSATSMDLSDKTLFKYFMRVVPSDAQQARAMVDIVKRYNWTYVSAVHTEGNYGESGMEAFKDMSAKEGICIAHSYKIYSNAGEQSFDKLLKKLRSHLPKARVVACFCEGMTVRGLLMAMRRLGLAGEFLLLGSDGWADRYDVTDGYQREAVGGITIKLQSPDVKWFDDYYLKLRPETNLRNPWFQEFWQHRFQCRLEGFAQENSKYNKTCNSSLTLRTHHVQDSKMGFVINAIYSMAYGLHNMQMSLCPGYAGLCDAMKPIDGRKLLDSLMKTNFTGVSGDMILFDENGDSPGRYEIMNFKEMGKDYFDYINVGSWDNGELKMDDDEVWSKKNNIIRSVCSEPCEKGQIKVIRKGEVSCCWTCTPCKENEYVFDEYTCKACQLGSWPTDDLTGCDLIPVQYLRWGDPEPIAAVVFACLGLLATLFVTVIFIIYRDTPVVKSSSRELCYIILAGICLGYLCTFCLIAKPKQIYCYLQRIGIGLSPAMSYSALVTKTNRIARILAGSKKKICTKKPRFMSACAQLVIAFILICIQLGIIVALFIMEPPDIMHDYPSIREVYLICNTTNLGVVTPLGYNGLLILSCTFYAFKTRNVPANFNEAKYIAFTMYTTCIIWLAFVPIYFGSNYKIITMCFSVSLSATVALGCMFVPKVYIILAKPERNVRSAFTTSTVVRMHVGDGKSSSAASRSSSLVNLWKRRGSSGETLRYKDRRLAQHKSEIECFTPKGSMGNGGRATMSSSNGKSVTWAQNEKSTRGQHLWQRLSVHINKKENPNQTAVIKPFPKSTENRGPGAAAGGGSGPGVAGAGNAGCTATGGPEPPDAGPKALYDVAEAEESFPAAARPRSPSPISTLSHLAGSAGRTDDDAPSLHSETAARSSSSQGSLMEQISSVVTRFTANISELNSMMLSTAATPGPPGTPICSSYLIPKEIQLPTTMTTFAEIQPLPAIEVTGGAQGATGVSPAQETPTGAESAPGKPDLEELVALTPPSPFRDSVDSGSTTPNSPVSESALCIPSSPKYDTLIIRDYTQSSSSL
EXPERIMENT_SUMMARY: Potentiation of rat mGluR5 receptor stably expressed in HEK293 cells assessed as fold shift in glutamate concentration response curve at 10 uM relative to control
Assay type: cell-based
fold change (FC) overview
Just the number.

>  <STRUCTURE_SMILES>
C[C@@H](NC(=O)c1ccc(C#Cc2cccc(F)c2)cn1)C(F)(F)F

>  <ENDPOINT_NAME>
fold change (FC)

>  <RESULT_NUMBER>
1.5

$$$$

Retrieve fold change (FC) on Metabotropic glutamate receptor 5 (Rattus norvegicus) (UniProt P31424); query C[C@@H](NC(=O)c1cnc(C#Cc2cccc(F)c2)nc1)C(C)(C)O
4

Report fold change (FC) under test system Metabotropic glutamate receptor 5 (Rattus norvegicus) (UniProt P31424) for O=C(NCC1CC1)c1ccc(C#Cc2cccc(F)c2)cn1 .
1.6
